protocol_description: Tissue distribution of curcumin and THC at necropsy 15 minutes post-infusion
Parameters: species or system Beagle dogs
details: both sexes, beagle, dog, in vivo, 10 mg/kg, 2 hour infusion; Plus H3PO4; read-out: Tissue level, Striatum
endpoint: concentration at 15 min

COc1cc(CCC(=O)CC(=O)CCc2ccc(O)c(OC)c2)ccc1O [THC, tetrahydrocurcumin]; 11.1 ng/g

---

protocol_description: in vivo
Parameters: species or system Beagle dogs
details: both sexes, beagle, dog, in vivo, Kp [tissue]/[plasma], Lungs
endpoint: Kp at 8 h

COc1cc(/C=C/C(=O)CC(=O)/C=C/c2ccc(O)c(OC)c2)ccc1O [Curcumin, reference compound]; 16.8

---

protocol_description: Tissue distribution of curcumin and THC at necropsy 15 minutes post-infusion
Set-up: species or system Beagle dogs
details: both sexes, beagle, dog, in vivo, 10 mg/kg, Table 15, 2 hour infusion; +H3PO4; read-out: Tissue analysis, Cortex
endpoint: concentration at 15 min (ng/g)

COc1cc(CCC(=O)CC(=O)CCc2ccc(O)c(OC)c2)ccc1O [THC, tetrahydrocurcumin]; 0.49

---

protocol_description: Tissue distribution of curcumin and THC at necropsy 15 minutes post-infusion
Parameters: species or system Beagle dogs
details: both sexes, beagle, dog, in vivo, 10 mg/kg, Table 14, 2 hour infusion; −H3PO4; read-out: Tissue analysis, Cortex
endpoint: concentration at 15 min (ng/g)

COc1cc(CCC(=O)CC(=O)CCc2ccc(O)c(OC)c2)ccc1O [THC, tetrahydrocurcumin]; 0.67

---

protocol_description: in vivo
Parameters: species or system Beagle dogs
details: both sexes, beagle, dog, in vivo, Tissue level, Cortex, Brain
Procedure: The test article will be administered to 8 Beagle dogs by intravenous infusion over two hours (Part A) or eight hours (Part B) as shown in Table 6. Multiple samples of tissue weighing approximately 1 gram were removed and snap frozen in the presence or absence of phosphoric acid (H3PO4). For all tissue samples, the levels of curcumin and THC were determined using a method developed by the Bioanalytical Department at Nucro-Technics. […]
endpoint: concentration at 15 min (ng/g)

COc1cc(/C=C/C(=O)CC(=O)/C=C/c2ccc(O)c(OC)c2)ccc1O [Curcumin, reference compound]; 0.52

---

protocol_description: Plasma pharmacokinetics of curcumin and THC during and after intravenous infusion of liposomal curcumin
Assay type: in vivo, Beagle dogs
details: both sexes, Beagle, dog, in vivo, 10 mg/kg, 5 mg/kg/hr; 30 min; mean±SE; read-out: [Plasma]
Protocol: The results and analysis for the study are presented for intravenous infusion dosing of a total dose of 10 mg/kg infused over a period of either 2 or 8 hours. Plasma levels of curcumin and its metabolite, THC were measured at timed intervals post-dosing. […] Bioanalysis was performed on two sets of samples, one set that was treated with phosphoric acid and one set that was not treated with phosphoric acid. […] Values that were below the limit of quantification were assigned a value of 0. […]
endpoint: concentration at 30 min (ng/mL)

COc1cc(CCC(=O)CC(=O)CCc2ccc(O)c(OC)c2)ccc1O [THC, tetrahydrocurcumin]; 566

---

protocol_description: Tissue distribution of curcumin and THC at necropsy 15 minutes post-infusion
Parameters: species or system Beagle dogs
details: both sexes, beagle, dog, in vivo, 10 mg/kg, 8 hr infusion; H3PO4 stabilized; read-out: Kp [tissue]/[plasma], Brain Stem
endpoint: Kp at 8 h

COc1cc(CCC(=O)CC(=O)CCc2ccc(O)c(OC)c2)ccc1O [THC, tetrahydrocurcumin]; 0.0289
